All figures here come from ChEMBL document CHEMBL1158600.

The following compounds are shown together with reported IC50 values.
- System: RAW264.7
- Protocol Notes: Antiinflammatory activity in mouse RAW264.7 cells assessed as inhibition of LPS-induced NO production
- Format: functional, cell-based

# Smi, Target Of Assay, Qual, IC50 / µM
measured = [
    ("COc1c(O)cc2ccc3c(OC)ccc(O)c3c2c1OC", "RAW264.7", "=", 20.4),
    ("COc1cc2ccc3cc(O)ccc3c2c(OC)c1O", "RAW264.7", "=", 35.7),
    ("COc1cc(O)c2c(c1)CCc1cc(O)ccc1-2", "RAW264.7", "=", 9.6),
    ("COc1cc(CCc2cc(OC)c(O)c(OC)c2)ccc1O", "RAW264.7", "=", 27.6),
    ("COc1c(O)c(O)cc2c1-c1c(O)cccc1CC2", "RAW264.7", "=", 17.6),
    ("COc1cc(O)cc2c1-c1c(O)cccc1CC2", "RAW264.7", "=", 26.4),
    ("COc1cc(O)cc(CCc2ccc(OC)c(OC)c2)c1", "RAW264.7", ">", 50),
]

---

- Tested on: RAW264.7
- Protocol Notes: Antiinflammatory activity in mouse RAW264.7 cells assessed as inhibition of LPS-induced NO production
- Type: functional, cell-based
pIC50: −log10 of the molar value.
Reported values of pIC50 for individual entries

# Compound, Qual, pIC50
records = [
    ("COc1cc(O)cc(CCc2ccc(O)c(OC)c2)c1 [GIGANTOL]", "<", 4.30),
    ("COc1cc2c(c(O)c1OC)-c1ccc(O)cc1CC2 [EPHEMERANTHOL A]", "=", 4.92),
    ("COc1c(O)cc2c(c1OC)-c1ccc(O)cc1CC2 [ERIANTHRIDIN]", "=", 4.71),
    ("COc1c(O)c(O)cc2ccc3cccc(O)c3c12 [FIMBRIOL B]", "=", 4.54),
    ("N=C(N)NN [PIMAGEDINE]", "=", 4.76),
    ("COc1cc2c(c(OC)c1O)-c1ccc(O)cc1CC2 [FLAVANTHRIDIN]", "=", 4.47),
]
